test system: Enterococcus faecium ATCC 10541; assay: Antibacterial Activity, agar dilution method, Enterococcus faecium; format: cell-based; conditions: Enterococcus faecium, ATCC10541, pH 7, read-out: MIC EF
attribute-measured: MIC (µg/mL)
Quick reminder: number only, in µg/mL, skip the unit.

Below: 4 compounds and their reported MIC.
compound	MIC, µg/mL
COc1ccccc1N1C(=O)C2(CO)SSC1(CO)C(=O)N2C (centres unmarked) [Compound I-15]	1.3
O=C1C2SSC(C(=O)N2Cc2ccccc2)N1Cc1ccccc1 [Compound I-19]	83
CC(=O)OCC1(SC(C)=O)C(=O)N(c2ccccc2)C(SC(C)=O)C(=O)N1C (centres unmarked) [Compound I-16]	42
CN1C(=O)C2SSC1(CO)C(=O)N2c1ccccc1 (centres unmarked) [Compound I-13]	0.16

Would you kindly look at the next entry?
Query CN1C(=O)C2(CO)SSC1(CO)C(=O)N2c1ccccc1 (centres unmarked) [Compound I-21] yields MIC of 0.33
